# Experiment description: Mean residence time (0 to infinity) in Sprague-Dawley rat at 5 mg/kg, iv after 24 hrs by LC/MS/MS analysis
# Assay type: ADME, organism-based
# Settings: in vivo
Measurement kind: MRT inf (h)
Number only, in h; omit the unit.

Data request: // MRT inf lookup, key: CN(C/C=C/c1ccc(-c2ccccc2)cc1)Cc1ccc2c(c1)CCO2.Cl
Data returned: 1.13

====

# Experiment description: Tmax in Sprague-Dawley rat at 5 mg/kg, iv after 24 hrs by LC/MS/MS analysis
# Type: ADME, organism-based
# Settings: in vivo
Measurement kind: Tmax (min)
Number only, in min; omit the unit.

Data request: Could you tell me which Tmax is on file for CN(C/C=C/c1ccc(-c2ccccc2)cc1)Cc1ccc2c(c1)CCO2.Cl ?
Data returned: 4.98
